Give measured fold change (FC) for each item. Keep answers brief.
Test system: QBI293
Experiment: Induction of microtubule stabilization in human QBI293 cells assessed as increase in acetylated alpha-tubulin at 1 uM after 4 hrs by ELISA relative to 0.1 uM treated triazolopyrimidines cevipabulin
Type: cell-based
Answer as a number with no unit attached.

Consider the compound "C[C@H](Nc1c(-c2c(F)cc(OCCCN(C)C)cc2F)c(Cl)nc2ncnn12)C(F)(F)F" and give its measured fold change (FC). 1.3

Consider the compound "C[C@H](Nc1c(-c2c(F)cc(OCCCN3CCOCC3)cc2F)c(Cl)nc2ncnn12)C(F)(F)F" and give its measured fold change (FC). 1.2

Consider the compound "C[C@H](Nc1nc(-c2cnccn2)nc(Cl)c1-c1c(F)cc(OCCCN(C)C)cc1F)C(F)(F)F" and give its measured fold change (FC). 0.5

Consider the compound "C[C@H](Nc1c(-c2c(F)cc(OCCCN)cc2F)c(Cl)nc2ncnn12)C(F)(F)F" and give its measured fold change (FC). 3.4

Consider the compound "C[C@H](Nc1nc(-c2ccccn2)nc(Cl)c1-c1c(F)cc(F)cc1F)C(F)(F)F" and give its measured fold change (FC). 0.9

---

Tested on: QBI293
Test: Induction of microtubule stabilization in human QBI293 cells assessed as increase in acetylated alpha-tubulin at 1 uM after 4 hrs by ELISA relative to 0.1 uM treated triazolopyrimidines cevipabulin
Type: cell-based
Field: label. Allowed values: satisfied (fold change (FC) < 1) or not satisfied (fold change (FC) >= 1).

Is 1 strictly greater than the compound's reported fold change (FC)? compound: "C[C@H](Nc1nc(-c2cnccn2)nc(Cl)c1-c1c(F)cc(F)cc1F)C(F)(F)F" satisfied

Is 1 strictly greater than the compound's reported fold change (FC)? compound: "CC(=O)NCCCOc1cc(F)c(-c2c(Cl)nc3ncnn3c2N[C@@H](C)C(F)(F)F)c(F)c1" not satisfied

Is 1 strictly greater than the compound's reported fold change (FC)? compound: "C[C@H](Nc1c(-c2c(F)cc(OCCCNCC(F)(F)F)cc2F)c(Cl)nc2ncnn12)C(F)(F)F" satisfied

Is 1 strictly greater than the compound's reported fold change (FC)? compound: "C[C@H](Nc1c(-c2c(F)cc(F)cc2F)c(Cl)nc2ncnn12)C(F)(F)F" satisfied

Is 1 strictly greater than the compound's reported fold change (FC)? compound: "C[C@H](Nc1c(-c2c(F)cc(OCCCNC(=O)C(C)(C)C)cc2F)c(Cl)nc2ncnn12)C(F)(F)F" satisfied

Is 1 strictly greater than the compound's reported fold change (FC)? compound: "C[C@H](Nc1c(-c2c(F)cc(OCCCO)cc2F)c(Cl)nc2ncnn12)C(F)(F)F" not satisfied

---

Test: Drug level in CD1 mouse plasma at 5 mg/kg, ip after 1 hr by LC-MS/MS system
Assay type: ADME, organism-based
Set-up: dose 5 mg/kg, route intraperitoneal
Measurement name: concentration at 1 h (nM)
Write it as a number; the unit nM goes unstated.

Consider the compound "C[C@H](Nc1c(-c2c(F)cc(OCCCN3CCOCC3)cc2F)c(Cl)nc2ncnn12)C(F)(F)F" and give its measured concentration at 1 h. 1200

Consider the compound "C[C@H](Nc1c(-c2c(F)cc(OCCCO)cc2F)c(Cl)nc2ncnn12)C(F)(F)F" and give its measured concentration at 1 h. 29

Consider the compound "CNCCCOc1cc(F)c(-c2c(Cl)nc3ncnn3c2N[C@@H](C)C(F)(F)F)c(F)c1" and give its measured concentration at 1 h. 2500

Consider the compound "C[C@H](Nc1nc(-c2cnccn2)nc(Cl)c1-c1c(F)cc(OCCCN(C)C)cc1F)C(F)(F)F" and give its measured concentration at 1 h. 2500

Consider the compound "C[C@H](Nc1c(-c2c(F)cc(OCCCCl)cc2F)c(Cl)nc2ncnn12)C(F)(F)F" and give its measured concentration at 1 h. 178
